Each recorded value in this set is attributed to the supplement of paper PMC9170038.

test system: MS2 coat protein; test: apparent KD of MS2 coat protein; designed switch direction (-1 OFF switch, 1 ON switch): 1; higher = weaker reporter binding; conditions: Eterna round: R95; input ligand: microRNA oligo, concentration not stated
Please provide measured apparent KD of MS2 coat protein for the entries that follow.
Please reply with the bare figure in nM and do not write the unit itself.

Quick check: apparent KD of MS2 coat protein of GGCACAAAAGCACAGGAUAUGCAAAAGAACACAUGAGGAUCACCCAUGUAGCCAAAUAACGGGCAGCAGAAGGGUGGGACUGCCA [Ceridi] (puzzle: Same State 2) ? 693

Quick check: apparent KD of MS2 coat protein of GCGCGAAAGAGCGAGGAUAUGCGGCGUAUAACAUGAGGAUCACCCAUGUCCUUCGAAUCUUGUACGCAGAAGGCGCUACAGGCGC [Robot Leg] (puzzle: Same State 2) ? 61

Quick check: apparent KD of MS2 coat protein of AGAGCCGGCACUGAGGAUAUUCAUAUUAAAACAUGAGGAUCACCCAUGUAGGCCAGAAGGCCUUGGGAGAAGGCAGGUCGGCUCU [Mat - Same State 2 - Mod of UCT - D61] (puzzle: Same State 2) ? 211

Quick check: apparent KD of MS2 coat protein of CAAACUUAGUAGGGUAGGUACCCAGGAUGACAUGAGGAUCACCCAUGUAAGAGCUUUUUGCUCGUCAUUAACAGUUG [JR_SHM208a_Sub018] (puzzle: Sensor for hsa-mir-208a) ? 102

====

system: K4 kissing-loop RNA reporter; experiment: apparent KD of K4 kissing-loop reporter; higher = weaker reporter binding; settings: Eterna round: R107; input ligand: arginine 13.2 mM;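 also: bound reporter read as fluorescence of individual clusters on recovered sequencing chips by microscopy, with normalized cluster intensities fitted with a binding model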
Please provide measured apparent KD of K4 kissing-loop reporter for the entries that follow.
Be sure to follow the number with its unit.

Quick check: apparent KD of K4 kissing-loop reporter of UGUACCGAAUCAGGAUAUGUCGUCGAAAGACGAAAUGGAGUGAUGUUCCUUAAACUGCGAAAGCAGACAGAAGGGAUUUGGUACU [FmnBS 29 A9+U77] ? 386 nM

Quick check: apparent KD of K4 kissing-loop reporter of "GCCCGAAAGGGCCGAUGUGUUUGCGGCGAUCGAGGACCGGUACGGCCGCCACUCGUCGAGGCGUUCAGUGAUGUUGAAAGCAUUA" ? 279 nM

Quick check: apparent KD of K4 kissing-loop reporter of UUCAGGUGUUCGGCCGCCACUCCAGUGAUGUUGGAGUGGCUUCACAAGGGCCAGGACAAUGUAGGGAGGACCGGGAAUAUCGCAG [Atvebeance] ? 117 nM

Quick check: apparent KD of K4 kissing-loop reporter of CCGUCGACAAGCGCCAUCGUCUACGUCAAUAAGGAUAUCAUCAAGGUGAGAAGGUAUGACAACCGGAGUGAUGUUCCAGGGCGAA [theeternabot_sameState_KL_FMN_A_5] ? 362 nM

Quick check: apparent KD of K4 kissing-loop reporter of GCAACAUUGGUAGGAUAUCAUUCUGAGUGAUGUUCAGGGUUCAGCUAACGAAAGUUAGUUGUACCAUGAGAAGGACUAAUGUUGC [Omei KL FMN B SS A v3] ? 766 nM

Quick check: apparent KD of K4 kissing-loop reporter of CGCAGUGAUGUUGCGAGUAGCUACAGGGAAGGAGCGCUCUAGUGAGCAGGUAGGUCGCCCACGCAGUGAUGUUGCGUCAUAGGGU [Exclusion Arg A GF9] ? 110 nM

====

system: MS2 coat protein; assay: apparent KD of MS2 coat protein; higher = weaker reporter binding; details: Eterna round: R107; input ligand: theophylline 2 mM
Please provide measured apparent KD of MS2 coat protein for the entries that follow.
Please reply with the bare figure in nM and do not write the unit itself.

Quick check: apparent KD of MS2 coat protein of UGAUAUAGGGAGCCGUAUCAGAAACCUGAAGGAGCGCCGGAAAAGGCAGGUAGGUCGCGGGAACAUGAGGAUCACCCAUGUAUUC [dancer_small] ? 19.2

Quick check: apparent KD of MS2 coat protein of GGGUGCGGCACGGCCGCCACUGCGGUGGUGUGACAUGAGGAUCACCCAUGUUGUCAUGCGGCCCUUAGGACCGGGUGCCGUGCCC [#1 Exclusion - Tryptophan B Attempt #13 (HarryS)] ? 62.4

Quick check: apparent KD of MS2 coat protein of GAGGACAUGAGGAUCACCCAUGUAAAUGAUACCAGUUGAGAGAGAGGCCCUUGGCAGCGUAAACAUGACAGCGAGCGAGAGUGCG [ss-theoA-0] ? 15.3

Quick check: apparent KD of MS2 coat protein of ACAUUUAACUGAAGGAGCGUGAAUAACAUGAGGAUCACCCAUGUAACUUAGAUUCUUAUAUCACAGGUAGGUCGCAGACUAAUGA [JR_ExcArginiB_Sub012] ? 21.5

Quick check: apparent KD of MS2 coat protein of UUAAUCAAUAUAGAAAACUAUAUUGCAGAAGGAGCGUGAUAAAACACAGGUAGGUCGCUGAAGGGAACAUGAGGAUCACCCAUGU [AstrosSSArgA#5] ? 26.3

Quick check: apparent KD of MS2 coat protein of "UUCAGCUAGUCGGCCGCCACUAUCUGAGGAUCACCCAGGUAAUCCUAACACUGCUUCGGCAGUGGUAGGACCGGGACUAGCUGAG" ? 20

Quick check: apparent KD of MS2 coat protein of GGAGCUACGUCGGCCGCCACUAGCGGGUAUUGCGUGUACAUGAGGAUCACCCAUGUAAUAUGGCCUAGGACCGGGACGUAGCUCC [Bison] ? 16.9

Quick check: apparent KD of MS2 coat protein of UGCCUAAAGUCGGCCGCCACUGAUGGUAUCCUCUCCUCGAGGUCACACAUGAGGAUCACCCAUGUCAGGACCGGGACUAGUGAGA [theeternabot_exclusion_MS2_Trp_B_36] ? 7.48

Quick check: apparent KD of MS2 coat protein of AAGGUGAUCCGUGAUACCAGCUCAACAUGAGGAUCACCCAUGUAAGCCUGGAAACAGGCGAGCCCUUGGCAGCACGGUUGCCAAG [(M)'-(Theo1)-(Ms2)-(Theo2)-(M'')-(T2)'_Design1] ? 25.4

Quick check: apparent KD of MS2 coat protein of UGAUAUGUAGGAAGGAGCGCAUACUUCACAUGAGGAUCACCCAUGUCAAGACGUGAGUCAGUGCAGGUAGGUCGCCUAGUUAUGA [Same State - Arginine B (Freestyle 20)] ? 36.9

Quick check: apparent KD of MS2 coat protein of UGCAUUAUACAUGGAUCACCCAUGUAGACACGAGGACCGGUACGGCCGCCACUCGGAAGAGGGAACAUGAGGAUCACCCAUGUGA [Try A SS t1] ? 55

Quick check: apparent KD of MS2 coat protein of ACAUGAGGAUCACCCAUGUAAAUAACGGAAGGAGCGUGCAAAAGCACAGGUAGGUCGCCGAUAUAAAUAUUGGGUAAUAUAUUAU [ExyArgA#1] ? 28.2

====

test system: MS2 coat protein; test: apparent KD of MS2 coat protein; higher = weaker reporter binding; conditions: Eterna round: R107; input ligand: none
VALUE TYPE: apparent KD of MS2 coat protein (nM)
Please reply with the bare figure in nM and do not write the unit itself.

Quick check: apparent KD of MS2 coat protein of "UGUAUGUGAUCUGAUACCAGCUUUGAUAACCUGAGGAUCACCCUGGUAAAGGCGAAAGCCAGCCCUUGGCAGCAGAUCGCAUACU" ? 49.1

Quick check: apparent KD of MS2 coat protein of "UGUAUGGACUGAAGGAGCGGUAGAUAACCUGAGGAUCACCCGGGUAAUAAAGGCGAAAGCCACCAGGUAGGUCGCAGUCCAUACU" ? 206

Quick check: apparent KD of MS2 coat protein of "UGUAUGGACUGAAGGAGCGGGUAAAUAACUUGAGGAUCACCCAGGUAAAAGGCGAAAGCCACCCAGGUAGGUCGCAGUCCAUACU" ? 21.1

Quick check: apparent KD of MS2 coat protein of CUCCUGGGAGCGGCCGCCACUGGAGGCCUUGCGCGACAUGAGGAUCACCCAUGUUGUCCCGGCCUCAGGACCGGGUUCGCGCGAG [Same State - Tryptophan B Attempt #1] ? 8.09

Quick check: apparent KD of MS2 coat protein of UUAUGCAGGUCGGCCGCCACUACACACAUGAGGAUCACCCAUGUAGUUACUGGGUGAAGUGGCAGUAGGACCGGGACCCGCACAC [Brourdmod22] ? 485

Quick check: apparent KD of MS2 coat protein of GGGUGCGGCACGGCCGCCACUGCGGUGGUGUGACAUGAGGAUCACCCAUGUUGUCAUGCGGCCCUUAGGACCGGGUGCCGUGCCC [#1 Exclusion - Tryptophan B Attempt #13 (HarryS)] ? 33.7

Quick check: apparent KD of MS2 coat protein of GAGGACAUGAGGAUCACCCAUGUAAAUGAUACCAGUUGAGAGAGAGGCCCUUGGCAGCGUAAACAUGACAGCGAGCGAGAGUGCG [ss-theoA-0] ? 13.1

Quick check: apparent KD of MS2 coat protein of GAUUACAUGAGGAUCACCCAUGUAACUGAAGGAGCGGUAAUAAAGCCAGGUAGGUCGCAGAACAACAUGUGGUUCAUCCAUGUAA [#14 Exclusion - Arginine A] ? 20.1

Quick check: apparent KD of MS2 coat protein of GACCUUGCGGGCGCCCGCAAGGUUGCGGAUACCAGCGAGGUCCAUCGCCCUUGGCAGCCGAACAUGAGGAUCACCCAUGUCGGAC [Same State - Theophylline A Attempt #3 (HarryS)] ? 11.4

Quick check: apparent KD of MS2 coat protein of AUGUCGUUGAAUAUAGCGGCUUGGAGUGAUACCAGAAUGAUCCAAUUCCCUUGGCAGCAUUACAUGAGGAUCACCCAUGUUCCAG [SSTheo A #23] ? 37.1

Quick check: apparent KD of MS2 coat protein of UUAUUUAACGGAAGGAGCGCGGAAAUAAAAGUGGGUAAACAUGAGGAUCACCCAUGUAAACCGCAGGUAGGUCGCCGAUAUUUAU [AstrosEXyARgB#2] ? 76.9

Quick check: apparent KD of MS2 coat protein of UGUAUGUGAUUUGAUACCAGACCAGCUGGUGUUAUAUGAGGAUCACCCAUAUAGGUUUGGGUCCCUUGGCAGCAAAUCGCAUACU [SS Theo B #24 Ms14] ? 28.6

Quick check: apparent KD of MS2 coat protein of ACAUUUAACUGAAGGAGCGUGAUAAACAUGAGGAUCACCCAUGUACCAAAGAUUUUCAGAUCACAGGUAGGUCGCAGACUAAUGA [JR_ExcArginiB_Sub015] ? 11.7

Quick check: apparent KD of MS2 coat protein of CGGGUUAGGGCGGCCGCCACUGUGGCUACGGUACAUGAGGAUCACCCAUGUUUGUGGUUGAUCUACAGGACCGGGCCCUGACACG [Geusrean] ? 102

Quick check: apparent KD of MS2 coat protein of UCACGACGGAUGGAUACCAGCGACAUGAGGAUCACCCAUGUAUGAGGAUCAGCCAUGUUAUGCCCUUGGCAGCCACGAAGGUCAU [YYYMULLIN] ? 19

Quick check: apparent KD of MS2 coat protein of GCCUAGCAUCGAAGGAGCGGGCAUUACGCGCGAAAGCGCGAUACUUGAGGAACACCCAAGUCCCAGGUAGGUCGCGAUGCUAGGC [SSAB Alternative Aptamer #3 NP+V+V2] ? 70.9

Quick check: apparent KD of MS2 coat protein of UGUAUGUGAUGGGAUACCAGACCAGCUGGUGAUACAUGAGGAUCACCCAUGUAAAUUUGGGUCCCUUGGCAGCCCAUCGCAUACU [SSTheo B #25] ? 22

Quick check: apparent KD of MS2 coat protein of UUAUAUAUGCGAAGGAGCGGGAAAUAUAUAUAUAUAAUCCUAACAUGAGGAUCACCCAUGUCCCAGGUAGGUCGCGCAUAUAUGG [12.E] ? 84.4

Quick check: apparent KD of MS2 coat protein of UGAUAUGUAGGAAGGAGCGCAUACUUCACAUGAGGAUCACCCAUGUCAAGACGUGAGUCAGUGCAGGUAGGUCGCCUAGUUAUGA [Same State - Arginine B (Freestyle 20)] ? 44.9

Quick check: apparent KD of MS2 coat protein of UAAUGUGAGAGAAGGAGCGGAAGUCUCGUUACAACAUGAGGAUCACCCAUGUAACGUACAGUCCAGGUAGGUCGCUCUCGGGCGC [pqacmullin] ? 14.8

Quick check: apparent KD of MS2 coat protein of GGAUAGGACAGAAGGAGCGUGAGAUGCAAAGCAUCAUUCCUCACAUGAGGAUCACCCAUGUCACAGGUAGGUCGCUGUCCUAUCG [ArgBX 4] ? 95.1

Quick check: apparent KD of MS2 coat protein of ACAUGAGGAUCACCCAUGUAUGACUAUCCUCGAGGACCGGUACGGCCGCCACUCGAAGGAGUGGCUCGCGAGUGCGCACUUGCGA [5' end] ? 11.9

Quick check: apparent KD of MS2 coat protein of AAGUGGCACGGAAGGAGCGAGUUUACCUAGAUAACAUGAGGAUCACCCAUGUAUAAUGGGACUCAGGUAGGUCGCCGCUGUCACU [#30 Same State - Arginine B] ? 41.5

Quick check: apparent KD of MS2 coat protein of ACCGCAUCCGUAUAGGAUGCGGCCCAUGAAGGAGCGUGGGAAACCACAGGUAGGUCGCAUGGACAUGAGGAUCACCCAUGUUAUU [Inception] ? 59.8
